system: THP-1; test: Antiinflammatory activity in PMA-stimulated human THP1 cells assessed as inhibition of LPS-induced TNFalpha production at 25 ug/mL after 4 hrs; assay type: functional; conditions: THP-1, 4 h
In this section we review reported inhibition at 25 µg/mL values for a set of compounds.
Respond numerically; units are % and should not be typed.

Recorded inhibition at 25 µg/mL, per entry:
[[record]]
structure_notation = "CC(=O)OC[C@H]1O[C@@H](SC(=S)C2=C(Nc3ccc(Br)cc3)CC(C)(C)CC2=O)[C@H](OC(C)=O)[C@@H](OC(C)=O)[C@@H]1OC(C)=O"
value_kind = "inhibition at 25 µg/mL"
value_units = "%"
measured_result = 58.7

[[record]]
structure_notation = "CC1(C)CC(=O)C=C(Nc2ccc(Cl)cc2)C1"
value_kind = "inhibition at 25 µg/mL"
value_units = "%"
measured_result = -4.3

[[record]]
structure_notation = "CC1(C)CC(=O)C(C(=S)SCc2ccccc2)=C(Nc2ccc(Br)cc2)C1"
value_kind = "inhibition at 25 µg/mL"
value_units = "%"
measured_result = -50.3

[[record]]
structure_notation = "CC1(C)CC(=O)C(C(=S)SCCO)=C(Nc2ccc(Br)cc2)C1"
value_kind = "inhibition at 25 µg/mL"
value_units = "%"
measured_result = -33.5


Request: Quick one: give measured inhibition at 25 µg/mL for CC1(C)CC(=O)C=C(Nc2ccc(Cl)cc2Cl)C1
Result: 6.3

---

tested on: J774.2; test: Antiinflammatory activity in lipopolysaccharide-induced mouse J774.2 cells assessed as inhibition of nitric oxide production at 25 ug/mL after 24 hrs by Griess method; type: functional; conditions: J774.2, 24 h
In this section we review reported inhibition at 25 µg/mL values for a set of compounds.
Respond numerically; units are % and should not be typed.

Recorded inhibition at 25 µg/mL, per entry:
[[record]]
structure_notation = "CC1(C)CC(=O)C(C(=S)SCCO)=C(Nc2ccc(Cl)cc2Cl)C1"
measured_result = 44.8

[[record]]
structure_notation = "CC1(C)CC(=O)C(C(=S)SCCO)=C(Nc2ccc(Cl)cc2)C1"
measured_result = 43.3

[[record]]
structure_notation = "CC(=O)OC[C@H]1O[C@@H](SC(=S)C2=C(Nc3ccc(Cl)cc3Cl)CC(C)(C)CC2=O)[C@H](OC(C)=O)[C@@H](OC(C)=O)[C@@H]1OC(C)=O"
measured_result = 57.2

[[record]]
structure_notation = "CC(=O)OC[C@H]1O[C@@H](SC(=S)C2=C(Nc3ccc(Cl)cc3Cl)CC(C)(C)CC2=O)[C@H](OC(C)=O)[C@@H](OC(C)=O)[C@H]1OC(C)=O"
measured_result = 66.8


Request: Quick one: give measured inhibition at 25 µg/mL for CCCCSC(=S)C1=C(Nc2ccc(Cl)cc2Cl)CC(C)(C)CC1=O
Result: 35.2

Request: Quick one: give measured inhibition at 25 µg/mL for CCCCSC(=S)C1=C(Nc2ccc(Cl)cc2)CC(C)(C)CC1=O
Result: 23.6

Request: Quick one: give measured inhibition at 25 µg/mL for CCCCCCCCCCCSC(=S)C1=C(Nc2ccc(Br)cc2)CC(C)(C)CC1=O
Result: 32.1

Request: Quick one: give measured inhibition at 25 µg/mL for CCCCCCCCCCCSC(=S)C1=C(Nc2ccc(Cl)cc2)CC(C)(C)CC1=O
Result: 16.5

Request: Quick one: give measured inhibition at 25 µg/mL for CC1(C)CC(=O)C=C(Nc2ccc(Cl)cc2)C1
Result: 62.4

Request: Quick one: give measured inhibition at 25 µg/mL for CC1(C)CC(=O)C(C(=S)SCc2ccccc2)=C(Nc2ccc(Cl)cc2)C1
Result: 10.4

---

In this section we review reported inhibition at 25 µg/mL values for a set of molecules.
test system: THP-1; assay: Antiinflammatory activity in PMA-stimulated human THP1 cells assessed as inhibition of LPS-induced TNFalpha production at 25 ug/mL after 4 hrs; format: functional; settings: THP-1, 4 h
Respond numerically; units are % and should not be typed.

Recorded inhibition at 25 µg/mL, per entry:
[[record]]
structure_notation = "CCCCCCCCCCCSC(=S)C1=C(Nc2ccc(Cl)cc2Cl)CC(C)(C)CC1=O"
study_target = "THP-1"
value_kind = "inhibition at 25 µg/mL"
value_units = "%"
measured_result = 29.3

[[record]]
structure_notation = "CC1(C)CC(=O)C(C(=S)SCc2ccccc2)=C(Nc2ccc(Cl)cc2)C1"
study_target = "THP-1"
value_kind = "inhibition at 25 µg/mL"
value_units = "%"
measured_result = -21

[[record]]
structure_notation = "CC(=O)OC[C@H]1O[C@@H](SC(=S)C2=C(Nc3ccc(Cl)cc3Cl)CC(C)(C)CC2=O)[C@H](OC(C)=O)[C@@H](OC(C)=O)[C@@H]1OC(C)=O"
study_target = "THP-1"
value_kind = "inhibition at 25 µg/mL"
value_units = "%"
measured_result = -48.2

[[record]]
structure_notation = "CC(=O)OC[C@H]1O[C@@H](SC(=S)C2=C(Nc3ccc(Cl)cc3Cl)CC(C)(C)CC2=O)[C@H](OC(C)=O)[C@@H](OC(C)=O)[C@H]1OC(C)=O"
study_target = "THP-1"
value_kind = "inhibition at 25 µg/mL"
value_units = "%"
measured_result = 83.8

[[record]]
structure_notation = "CC(=O)OC[C@H]1O[C@@H](SC(=S)C2=C(Nc3ccc(Cl)cc3)CC(C)(C)CC2=O)[C@H](OC(C)=O)[C@@H](OC(C)=O)[C@@H]1OC(C)=O"
study_target = "THP-1"
value_kind = "inhibition at 25 µg/mL"
value_units = "%"
measured_result = 83.8

[[record]]
structure_notation = "CCCCSC(=S)C1=C(Nc2ccc(Br)cc2)CC(C)(C)CC1=O"
study_target = "THP-1"
value_kind = "inhibition at 25 µg/mL"
value_units = "%"
measured_result = -31.4

[[record]]
structure_notation = "CC1(C)CC(=O)C(C(=S)SCCO)=C(Nc2ccc(Cl)cc2Cl)C1"
study_target = "THP-1"
value_kind = "inhibition at 25 µg/mL"
value_units = "%"
measured_result = -50.3

[[record]]
structure_notation = "CCCCSC(=S)C1=C(Nc2ccc(Cl)cc2)CC(C)(C)CC1=O"
study_target = "THP-1"
value_kind = "inhibition at 25 µg/mL"
value_units = "%"
measured_result = 10.5


Request: Answer briefly: inhibition at 25 µg/mL recorded on THP-1 for CCCCCCCCCCCSC(=S)C1=C(Nc2ccc(Br)cc2)CC(C)(C)CC1=O
Result: -58.7

Request: Answer briefly: inhibition at 25 µg/mL recorded on THP-1 for CCCCSC(=S)C1=C(Nc2ccc(Cl)cc2Cl)CC(C)(C)CC1=O
Result: -14.7

Request: Answer briefly: inhibition at 25 µg/mL recorded on THP-1 for CC1(C)CC(=O)C(C(=S)SCCO)=C(Nc2ccc(Cl)cc2)C1
Result: 0

Request: Answer briefly: inhibition at 25 µg/mL recorded on THP-1 for CCCCCCCCCCCSC(=S)C1=C(Nc2ccc(Cl)cc2)CC(C)(C)CC1=O
Result: -56.6

Request: Answer briefly: inhibition at 25 µg/mL recorded on THP-1 for CC1(C)CC(=O)C=C(Nc2ccc(Br)cc2)C1
Result: -31.4

Request: Answer briefly: inhibition at 25 µg/mL recorded on THP-1 for CC1(C)CC(=O)C(C(=S)SCc2ccccc2)=C(Nc2ccc(Cl)cc2Cl)C1
Result: -50.3
